Source: patent US20250179028A1

test: PBS and FaSSIF solubility; assay type: physicochemical; details: fasted state simulated intestinal fluid (FaSSIF), fassif, kinetic from dmso stock; Fasted state simulated intestinal fluid, 2 hr at 25° C.; read-out: Solubility FaSSIF
Recorded log10 solubility at 2 h by entry
TEST READOUT: log10 solubility at 2 h (log10 of the value in µM)

COMPOUND	RECORDED RESULT
COCc1c(F)cnc(C)c1NC(=O)/C=C/c1ccc2c(C)n[nH]c2c1 [Example 117]	1.93
Cc1c(F)cccc1NC(=O)/C=C/c1ccc2oc(=O)[nH]c2c1 [Example 6]	1.20
Cc1cccc(C)c1NC(=O)/C=C/c1ccc2c(c1)NC(=O)C2 [Example 19]	2.29
Cc1c(F)cc(F)c(C)c1NC(=O)/C=C/c1ccc2c(c1)NC(=O)C2 [Example 35]	2.41
Cc1ccc(F)c(C)c1NC(=O)/C=C/c1ccc2c(c1)[nH]c(=O)n2C [Example 30]	2.13
CO[C@H]1Cc2ccccc2[C@@H]1NC(=O)/C=C/c1ccc2c(Cl)n[nH]c2c1 [Example 72]	1.39
CO[C@H]1Cc2ccccc2[C@@H]1NC(=O)/C=C/c1ccc2c(C)n[nH]c2c1 [Example 54]	1.34
COc1n[nH]c2cc(/C=C/C(=O)N[C@H]3c4ccccc4C[C@@H]3OC)ccc12 [Example 71]	1.30
COc1cc(C)c(NC(=O)/C=C/c2ccc3c(C)n[nH]c3c2)c(C)n1 [Example 91]	1.93

###

Recorded inhibition at 20 min, 1 µM by entry
target: CYP2D6 (Homo sapiens (Human), UniProt P10635); test: Cytochrome P450 CYP2D6 inhibition in human liver microsomes; type: in vitro ADME; conditions: probe dextromethorphan 2 µM (dextrorphan formation); 1 uM test compound, human liver microsomes; average value from two experiments; negative values = no effective inhibition
Sequence (P10635 whole entry): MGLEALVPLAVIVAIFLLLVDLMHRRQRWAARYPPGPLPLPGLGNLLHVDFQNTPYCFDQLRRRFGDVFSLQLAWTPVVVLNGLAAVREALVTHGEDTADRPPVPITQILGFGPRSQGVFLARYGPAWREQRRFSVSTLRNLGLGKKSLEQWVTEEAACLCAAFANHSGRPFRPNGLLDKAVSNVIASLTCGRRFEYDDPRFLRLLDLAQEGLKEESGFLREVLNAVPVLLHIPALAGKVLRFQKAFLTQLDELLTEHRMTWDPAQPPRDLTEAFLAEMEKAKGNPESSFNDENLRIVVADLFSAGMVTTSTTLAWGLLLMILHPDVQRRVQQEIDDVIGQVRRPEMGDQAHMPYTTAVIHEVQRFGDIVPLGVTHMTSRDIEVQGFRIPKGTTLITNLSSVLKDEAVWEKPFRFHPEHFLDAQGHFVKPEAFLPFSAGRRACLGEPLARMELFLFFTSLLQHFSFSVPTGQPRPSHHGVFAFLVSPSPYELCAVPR

MOLECULE	inhibition at 20 min, 1 µM, %
Cc1c(F)cccc1NC(=O)/C(F)=C/c1ccc2c(c1)NC(=O)C2	1.91
COc1n[nH]c2cc(/C=C/C(=O)N[C@H]3c4ccccc4C[C@@H]3OC)ccc12	7.4
O=C(/C=C/c1ccc2c(C(F)(F)F)n[nH]c2c1)NC1CCc2ccccc21 (centres unmarked)	8.27
Cc1cc(F)c(F)c(C)c1NC(=O)/C=C/c1ccc2c(c1)NC(=O)C2	-2.57
Cc1cccc(C)c1NC(=O)/C=C/c1ccc2c(c1)NC(=O)C2	-3.04

###

assay: Hepatocyte clearance assay, human; format: in vitro ADME; conditions: cryopreserved primary hepatocytes, average value from two experiments, read-out: Human heps Clint

COMPOUND	hepatocyte CLint at 1 µM [µL/min/1e6 cells]
CO[C@H]1Cc2ccccc2[C@@H]1NC(=O)/C=C/c1ccc2c(Cl)n[nH]c2c1	11.3
COCc1c(F)cncc1NC(=O)/C=C/c1ccc2c(C)n[nH]c2c1	3
O=C(/C=C/c1cc2[nH]nnc2cc1F)NC1CCc2ccccc21 (stereo not drawn)	9.6

###

assay: Hepatocyte clearance assay, rat; assay type: in vitro ADME; conditions: cryopreserved primary rat hepatocytes, average value from two experiments, read-out: Rat heps Clint
TEST READOUT: hepatocyte CLint at 1 µM (µL/min/1e6 cells)

COMPOUND	TEST READOUT	RECORDED RESULT
CO[C@H]1Cc2ccccc2[C@@H]1NC(=O)/C=C/c1ccc2c(F)n[nH]c2c1	hepatocyte CLint at 1 µM	73.5
COCc1c(F)cccc1NC(=O)/C=C/c1ccc2c(C)n[nH]c2c1	hepatocyte CLint at 1 µM	47.8
Cc1n[nH]c2cc(/C=C/C(=O)NC3CCc4ccccc43)ccc12 (stereo not shown)	hepatocyte CLint at 1 µM	36.3
Cc1n[nH]c2cc(/C=C/C(=O)N[C@H]3c4ccccc4C[C@@H]3OCC3COC3)ccc12	hepatocyte CLint at 1 µM	36.1
